Reference for the values: paper PMC4749975

Target: PTP1B (Homo sapiens, UniProt P18031)
Sequence (P18031 whole entry, species assumed): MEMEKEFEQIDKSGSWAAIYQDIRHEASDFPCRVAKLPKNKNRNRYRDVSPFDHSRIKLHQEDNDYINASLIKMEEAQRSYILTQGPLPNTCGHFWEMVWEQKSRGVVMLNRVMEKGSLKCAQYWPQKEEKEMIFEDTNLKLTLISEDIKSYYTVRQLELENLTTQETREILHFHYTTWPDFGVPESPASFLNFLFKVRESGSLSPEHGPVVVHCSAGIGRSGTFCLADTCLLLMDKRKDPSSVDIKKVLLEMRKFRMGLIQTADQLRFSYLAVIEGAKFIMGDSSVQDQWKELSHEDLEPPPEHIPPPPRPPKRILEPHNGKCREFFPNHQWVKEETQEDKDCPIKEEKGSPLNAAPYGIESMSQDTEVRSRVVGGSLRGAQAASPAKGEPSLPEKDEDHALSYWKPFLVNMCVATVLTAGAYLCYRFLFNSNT
Assay: Estimation of Ki and binding free energy from experimental IC50 (IC50-to-Ki converter)
Conditions: IC50-to-Ki converter; [E] 0.01, [S] 20000 µM; read-out: Constant of inhibition [Ki]
pKi: −log10 of the molar value.
quantity: pKi

>>> assay_result("C=C(C)[C@@H]1CC[C@]2(C(=O)O)CC[C@]3(C)[C@H](CC[C@@H]4[C@@]5(C)CC[C@H](O)C(C)(C)[C@@H]5CC[C@]43C)[C@@H]12")
5.82

====

Molecular target: recombinant human TCPTP protein (Homo sapiens)
Construct: purchased Abcam Inc (Cambridge, MA) ab42575
Sequence (P17706 1-415): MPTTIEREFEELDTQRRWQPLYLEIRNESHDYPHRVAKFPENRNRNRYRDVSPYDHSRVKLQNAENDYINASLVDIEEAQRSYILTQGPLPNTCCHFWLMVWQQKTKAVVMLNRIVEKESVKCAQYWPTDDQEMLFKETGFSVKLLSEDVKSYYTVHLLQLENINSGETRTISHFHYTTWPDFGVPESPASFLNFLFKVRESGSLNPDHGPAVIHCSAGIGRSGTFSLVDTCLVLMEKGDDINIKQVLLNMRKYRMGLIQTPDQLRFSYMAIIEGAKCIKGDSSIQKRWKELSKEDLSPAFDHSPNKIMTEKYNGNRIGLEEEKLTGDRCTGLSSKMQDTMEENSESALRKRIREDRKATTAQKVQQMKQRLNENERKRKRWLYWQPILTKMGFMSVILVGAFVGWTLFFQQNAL
Assay: Inhibiting TCPTP by pNPP phosphatase assay
Format: biochemical
quantity: IC50 (µM)

>>> assay_result("C=C(C)[C@@H]1CC[C@]2(CO)CC[C@]3(C)[C@H](CC[C@@H]4[C@@]5(C)CC[C@H](O)C(C)(C)[C@@H]5CC[C@]43C)[C@@H]12 [Betulin, betulin]")
119
>>> assay_result("C=C(C)[C@@H]1CC[C@]2(C)CC[C@]3(C)[C@H](CC[C@@H]4[C@@]5(C)CC[C@H](O)C(C)(C)[C@@H]5CC[C@]43C)[C@@H]12 [Lupeol, lupeol]")
126

====

IC50 for assorted compounds
Molecular target: recombinant human TCPTP protein (Homo sapiens)
Construct: purchased Abcam Inc (Cambridge, MA) ab42575
Experiment: Inhibiting TCPTP by pNPP phosphatase assay
Assay type: biochemical
Details: pNPP assay, 25 °C; read-out: IC50 TCPTP
quantity: IC50

>>> assay_result("C=C(C)[C@@H]1CC[C@]2(C(=O)O)CC[C@]3(C)[C@H](CC[C@@H]4[C@@]5(C)CC[C@H](O)C(C)(C)[C@@H]5CC[C@]43C)[C@@H]12")
"124 µM"
>>> assay_result("CCc1oc2cc(S(=O)(=O)Nc3ccc(S(=O)(=O)Nc4nccs4)cc3)ccc2c1C(=O)c1cc(Br)c(O)c(Br)c1 [Compound 3, reference compound]")
"62.7 µM"
>>> assay_result("C=C(C)[C@@H]1CC[C@]2(C)CC[C@]3(C)[C@H](CC[C@@H]4[C@@]5(C)CCC(=O)C(C)(C)[C@@H]5CC[C@]43C)[C@@H]12")
"91.5 µM"

====

Target: recombinant human TCPTP protein (Homo sapiens)
Construct: purchased Abcam Inc (Cambridge, MA) ab42575
Assay: Inhibiting TCPTP by pNPP phosphatase assay
Assay type: biochemical
Details: PTP1B IC50 from literature, TCPTP IC50 measured
Fold changes (TCPTP IC50 / PTP1B IC50) for assorted compounds
quantity: Fold changes (TCPTP IC50 / PTP1B IC50) (fold)

>>> assay_result("C=C(C)[C@@H]1CC[C@]2(C(=O)O)CC[C@]3(C)[C@H](CC[C@@H]4[C@@]5(C)CC[C@H](O)C(C)(C)[C@@H]5CC[C@]43C)[C@@H]12")
81
>>> assay_result("C=C(C)[C@@H]1CC[C@]2(CO)CC[C@]3(C)[C@H](CC[C@@H]4[C@@]5(C)CC[C@H](O)C(C)(C)[C@@H]5CC[C@]43C)[C@@H]12")
7
>>> assay_result("C=C(C)[C@@H]1CC[C@]2(C)CC[C@]3(C)[C@H](CC[C@@H]4[C@@]5(C)CC[C@H](O)C(C)(C)[C@@H]5CC[C@]43C)[C@@H]12")
22
>>> assay_result("C=C(C)[C@@H]1CC[C@]2(C)CC[C@]3(C)[C@H](CC[C@@H]4[C@@]5(C)CCC(=O)C(C)(C)[C@@H]5CC[C@]43C)[C@@H]12")
6

====

Ki for assorted compounds
Biological target: PTP1B (Homo sapiens, UniProt P18031)
Assay: Estimation of Ki and binding free energy from experimental IC50 (IC50-to-Ki converter)
quantity: Ki (µM)

>>> assay_result("C=C(C)[C@@H]1CC[C@]2(C)CC[C@]3(C)[C@H](CC[C@@H]4[C@@]5(C)CC[C@H](O)C(C)(C)[C@@H]5CC[C@]43C)[C@@H]12")
5.6
>>> assay_result("C=C(C)[C@@H]1CC[C@]2(CO)CC[C@]3(C)[C@H](CC[C@@H]4[C@@]5(C)CC[C@H](O)C(C)(C)[C@@H]5CC[C@]43C)[C@@H]12")
15.3
